- System: Acinetobacter baumannii ATCC 17978
- Assay info: Antimicrobial susceptibility testing: 90% growth inhibitory concentration (IC90) determination
- Type: cell-based
- Condition summary: Acinetobacter baumannii, ATCC17978, 16 h, 90% growth inhibitory concentration; Acinetobacter baumannii ATCC17978; Iso-Sensitest broth, OD 600 nm over 16h; read-out: ATCC17978 IC90
So basically, if IC90 comes in under 400 nM it's 1, and if it's 400 nM or more it's 0.

Record excerpt, results attached:
1. Cc1cc(Nc2nccn3c(-c4ccc(Cl)c(F)c4F)cnc23)ccc1C(=O)N(C)CCN: 0
2. CCc1cc(Nc2nccn3c(-c4ccc(OC)c(F)c4F)cnc23)ccc1C(=O)NCCNC(=O)NCCCN: 0
3. CCc1cc(Nc2nccn3c(-c4ccc(OC(F)F)c(F)c4F)cnc23)ccc1C(=O)NCCCNC(=O)CN(C)C: 1

Would you kindly look at the next entry?
Answer whether the compound COc1ccc(-c2cnc3c(Nc4ccc5c(c4)CCN(CCN(C)C)C5=O)nccn23)cc1F has IC90 strictly less than 400 nM
0

###

- Tested on: Acinetobacter baumannii ATCC 17978
- Assay info: Antimicrobial susceptibility testing: 90% growth inhibitory concentration (IC90) determination
- Format: cell-based
- Condition summary: Acinetobacter baumannii, ATCC17978, 16 h, 90% growth inhibitory concentration; Acinetobacter baumannii ATCC17978; Iso-Sensitest broth, OD 600 nm over 16h; read-out: ATCC17978 IC90
Counter-ions that a name gives are not always drawn.
Metric: IC90 (nM)
Give bare numbers, in nM.

1. COc1ccc(-c2cnc3c(Nc4ccc(C(=O)NCCNC(=O)[C@@H]5C[C@](C)(O)CN5)c(C)c4)nccn23)c(F)c1F: 150
2. COc1ccc(-c2cnc3c(Nc4ccc(C(=O)N(C)CC5CCNCC5)c(Cl)c4)nccn23)cc1F: 530
3. COc1ccc(-c2cnc3c(Nc4ccc(C(=O)N(C)CCN)c(C)c4)nccn23)cc1: 1700

Required: IC90, one value per molecule below.
1. CCc1cc(Nc2nccn3c(-c4ccc(OC)c(F)c4F)cnc23)ccc1C(=O)N[C@H](C)CNC(=O)[C@@H](N)CCCCN
2. CCc1cc(Nc2nccn3c(-c4ccc(OC)c(F)c4F)cnc23)ccc1C(=O)N[C@H](C)CCNC(=O)[C@@H](N)CCCNC(=N)N
3. CCc1cc(Nc2nccn3c(-c4ccc(OC)c(F)c4F)cnc23)ccc1C(=O)NC(C)(C)CN [Example 99, hydrochloride]
4. CCN(CC)C(=O)c1ccc(Nc2nccn3c(-c4ccc(OC)c(Cl)c4)cnc23)cc1

1: 300; 2: 190; 3: 350; 4: 680

###

- Test system: Acinetobacter baumannii ATCC 17978
- Assay info: Antimicrobial susceptibility testing: 90% growth inhibitory concentration (IC90) determination
- Type: cell-based
- Condition summary: Acinetobacter baumannii, ATCC17978, 16 h, 90% growth inhibitory concentration; Acinetobacter baumannii ATCC17978; Iso-Sensitest broth, OD 600 nm over 16h; read-out: ATCC17978 IC90
Where a name gives a salt, the structure may show the parent alone.
Metric: log10 IC90 (log10 of the value in µM)
Hi team, quick reminder: these entries are log10 of IC90 (µM).

1) Cc1cc(Nc2nccn3c(-c4ccc(Cl)c(F)c4F)cnc23)ccc1C(=O)N(C)CCCN [Example 228]: 0.08

Give measured log10 IC90 for every item shown.
1. CCc1cc(Nc2nccn3c(-c4ccc(OC(F)F)cc4)cnc23)ccc1C(=O)NC [Example 183]
2. COc1ccc(-c2cnc3c(Nc4ccc(C(=O)NCC5CCNCC5)c(C)c4)nccn23)c(F)c1F [Example 55]

1: -0.72; 2: -0.59

List the reported log10 IC90 of each compound below.
1. CCc1cc(Nc2nccn3c(-c4ccc(Oc5ccc(OCCN)cn5)c(F)c4F)cnc23)ccc1C(=O)NC [Example 512, formic acid]
2. COc1ccc(-c2cnc3c(Nc4ccc(C(=O)NCCCN)c(C)c4F)nccn23)c(F)c1F [Example 479]
3. CCc1cc(Nc2nccn3c(-c4ccc(OC(F)F)c(F)c4F)cnc23)ccc1C(=O)NCC1CCN(CC2CNC2)CC1 [Example 547, formate]

1. -0.29
2. -0.31
3. -0.80

Could you report log10 IC90 for every entry in the following list?
1. CCc1cc(Nc2nccn3c(-c4ccc(Oc5ccccn5)c(F)c4F)cnc23)ccc1C(=O)NCCNC(=O)[C@H](N)CCNC(=N)N [Example 426]
2. Cc1cc(Nc2nccn3c(-c4ccc(OC(F)F)cc4)cnc23)ccc1C(=O)N(C)CCN1C[C@@H](C)O[C@@H](C)C1 [Example 256]
3. Cc1cc(Nc2nccn3c(-c4ccc(OC(F)F)cc4)cnc23)ccc1C(=O)NC[C@@H](C)N [Example 268]
4. COc1ccc(-c2cnc3c(Nc4ccc(C(=O)N5CCN(C(=O)[C@@H]6C[C@@](C)(O)CN6)CC5)c(C)c4)nccn23)c(F)c1F [Example 362]
5. CCc1cc(Nc2nccn3c(-c4ccc(OC)c(F)c4F)cnc23)ccc1C(=O)NC[C@H]1CCNC1 [Example 530, hydrochloride]
6. C#CCCCNC(=O)c1ccc(Nc2nccn3c(-c4ccc(OC)c(F)c4F)cnc23)cc1CC [Example 481]
7. CCc1cc(Nc2nccn3c(-c4ccc(OC)c(F)c4F)cnc23)ccc1C(=O)NCCNC(=O)[C@@H](N)CCCNC(N)=O [Example 332]

1: -0.09; 2: 0.28; 3: 0.75; 4: -1.10; 5: -0.96; 6: -0.59; 7: -0.49

Hello, I would appreciate it if you could give log10 IC90 for each entry below.
1. CCc1cc(Nc2nccn3c(-c4ccc(Oc5ccncn5)c(F)c4F)cnc23)ccc1C(=O)NCCNC(=O)[C@H](N)CCCNC(=N)N [Example 433, formic acid]
2. CCc1cc(Nc2nccn3c(-c4ccc(OC)c(F)c4F)cnc23)ccc1C(=O)NCCNC(=O)[C@@H]1C[C@@H](O)CN1 [Example 370]
3. CNC(=O)c1ccc(Nc2nccn3c(-c4ccc(OC(F)F)cc4)cnc23)cc1C(C)C [Example 166]
4. Cc1cc(Nc2nccn3c(-c4ccc(OC(F)F)cc4)cnc23)ccc1C(=O)N(C)CCN1CCNCC1 [Example 45]
5. CCc1cc(Nc2nccn3c(-c4ccc(OC)c(F)c4F)cnc23)ccc1C(=O)NCCNC(=O)C(CNC(=N)N)NC(=O)[C@@H](N)CCC(=O)O (mixture of isomers) [Example 461, trihydrochloride]

[-0.34, -0.85, -0.01, -0.46, -0.32]

Field: log10 IC90. Fill in for each record below.
1. CCc1cc(Nc2nccn3c(-c4ccc(Oc5ccccn5)c(F)c4F)cnc23)ccc1C(=O)NCCCCC(=O)N1CCN[C@H](CO)C1 [Example 477]
2. CCc1cc(Nc2nccn3c(-c4ccc(Oc5ncccn5)c(F)c4F)cnc23)ccc1C(=O)NCC1CCNCC1 [Example 548, formate]

1. -0.48
2. -0.33

###

- Tested on: Acinetobacter baumannii ATCC 17978
- Assay info: Antimicrobial susceptibility testing: 90% growth inhibitory concentration (IC90) determination
- Type: cell-based
- Condition summary: Acinetobacter baumannii, ATCC17978, 16 h, 90% growth inhibitory concentration; Acinetobacter baumannii ATCC17978; Iso-Sensitest broth, OD 600 nm over 16h; read-out: ATCC17978 IC90
Metric: IC90 (nM)
Answers are plain numbers, in nM.

Sample records with IC90:
1. CCc1cc(Nc2nccn3c(-c4ccc(OC)c(F)c4F)cnc23)ccc1C(=O)NCCNC(=O)[C@@H](N)CCCCN: 410
2. CCc1cc(Nc2nccn3c(-c4ccc(OC(F)F)c(F)c4F)cnc23)ccc1C(=O)NCC1CCNC1 (stereo not drawn): 150

Give me IC90 for each of these compounds, listed below.
1. CCc1cc(Nc2nccn3c(-c4ccc(OC)c(F)c4F)cnc23)ccc1C(=O)NCc1cnc(N)s1
2. COc1ccc(-c2cnc3c(Nc4ccc(C(=O)NCC5(O)CCNC5)c(C)c4)nccn23)cc1F (stereo not drawn)
3. COc1ccc(-c2cnc3c(Nc4ccc(C(=O)N(C)CCOn5nnc6cccnc65)c(C)c4)nccn23)cc1F

[84, 2700, 510]

###

I'd appreciate it if you could supply IC90 values for the items below.
- Test system: Acinetobacter baumannii ATCC 17978
- Assay info: Antimicrobial susceptibility testing: 90% growth inhibitory concentration (IC90) determination
- Type: cell-based
- Condition summary: Acinetobacter baumannii, ATCC17978, 16 h, 90% growth inhibitory concentration; Acinetobacter baumannii ATCC17978; Iso-Sensitest broth, OD 600 nm over 16h; read-out: ATCC17978 IC90
Counter-ions that a name gives are not always drawn.
One number for each entry, in nM.

1) COc1ccc(-c2cnc3c(Nc4ccc(C(=O)NCCC5CCNCC5)c(C)c4)nccn23)cc1: 330
2) Cc1cc(Nc2nccn3c(-c4ccc(OC(F)F)cc4)cnc23)ccc1C(=O)NCCCCNC(=N)N: 250
3) Cc1cc(Nc2nccn3c(-c4ccc(OC(F)F)cc4)cnc23)ccc1C(=O)NC(C)(C)CN1CCOCC1: 1100
4) CCc1cc(Nc2nccn3c(-c4ccc(OC(F)F)c(F)c4F)cnc23)ccc1C(=O)NCCC(=O)N1CCNCC1 [Example 542, trifluoroacetate]: 54

Provide the reported IC90 of each entry below, same order.
1. CNC(=O)c1ccc(Nc2nccn3c(-c4ccc(OC)cc4)cnc23)cc1C
2. Cc1cc(Nc2nccn3c(-c4ccc(OC(F)F)cc4)cnc23)ccc1C(=O)N(CCN1CCNCC1)C1CC1
3. COc1ccc(-c2cnc3c(Nc4ccc(C(=O)N(C)CCN5CCNCC5)c(C)c4)nccn23)c(F)c1F
4. CN(C)C(=O)c1ccc(Nc2nccn3c(-c4ccc(OC(F)F)cc4)cnc23)cc1CO

120
2100
190
4100
